Tested on: Mycobacterium tuberculosis
Assay: Antimicrobial activity against Mycobacterium tuberculosis H37Rv ATCC 27294 after 16 to 24 hrs by microplate alamar blue assay
Type: functional
Active and inactive are the calls of the source. No cut-off for these calls is given here.
metric: MIC

> print(dat)
                                    compound        result
 1  O=C(CCCCBr)O/N=C1\c2ccccc2-c2c1c(N1CCN(c3ccccn3)CC1)nc1ccc(Br)cc21    2.03 µg/mL
 2  CCCCC(=O)OC1(C)c2ccccc2-c2c1c(-n1ccnc1)nc1ccc(Br)cc21 (stereo not drawn)    1.53 µg/mL
 3  CCCC(=O)O/N=C1\c2ccccc2-c2c1c(-n1ccnc1)nc1ccc(Br)cc21   < 0.2 µg/mL
 4  CC(=O)NCC(=O)O/N=C1\c2ccccc2-c2c1c(N1CCN(c3ccccn3)CC1)nc1ccc(Br)cc21       6 µg/mL
 5  CCCCCCCCC(=O)OC1(C)c2ccccc2-c2c1c(-n1ccnc1)nc1ccc(Br)cc21 (stereo not drawn)    1.56 µg/mL
 6  CCCCCCC(=O)O/N=C1\c2ccccc2-c2c1c(N1CCN(c3ccccn3)CC1)nc1ccc(Br)cc21      inactive
 7  CC(=O)O/N=C1\c2ccccc2-c2c1c(-n1ccnc1)nc1ccc(Br)cc21   < 0.2 µg/mL
 8  O/N=C1\c2ccccc2-c2c1c(-n1ccnc1)nc1ccc(Br)cc21  < 0.39 µg/mL
 9  CC1(OC(=O)CC(F)(F)F)c2ccccc2-c2c1c(-n1ccnc1)nc1ccc(Br)cc21 (stereo not drawn)     0.5 µg/mL
10  CCCCC(=O)O/N=C1\c2ccccc2-c2c1c(N1CCN(c3ccccn3)CC1)nc1ccc(Br)cc21      inactive
11  CCCCC(=O)O/N=C1\c2ccccc2-c2c1c(-n1ccnc1)nc1ccc(Br)cc21    0.28 µg/mL
12  CC(C)(C)OC(=O)NCC(=O)O/N=C1\c2ccccc2-c2c1c(N1CCN(c3ccccn3)CC1)nc1ccc(Br)cc21    1.55 µg/mL
13  CN(C)C(=O)O/N=C1\c2ccccc2-c2c1c(-n1ccnc1)nc1ccc(Br)cc21    0.27 µg/mL
14  CC(C)(C)OC(=O)N[C@H](C(=O)O/N=C1\c2ccccc2-c2c1c(N1CCN(c3ccccn3)CC1)nc1ccc(Br)cc21)C(C)(C)C    1.52 µg/mL
15  CN(C)C(=O)OC1(C)c2ccccc2-c2c1c(-n1ccnc1)nc1ccc(Br)cc21 (stereo not drawn)       6 µg/mL
16  CC(C)(C)OC(=O)NC1(C(=O)O/N=C2\c3ccccc3-c3c2c(N2CCN(c4ccccn4)CC2)nc2ccc(Br)cc32)CCCC1      inactive
17  CC(C)(C)OC(=O)N1CCC[C@H]1C(=O)O/N=C1\c2ccccc2-c2c1c(N1CCN(c3ccccn3)CC1)nc1ccc(Br)cc21    1.53 µg/mL
18  CCCCCCCCCCCCCCC(=O)O/N=C1\c2ccccc2-c2c1c(N1CCN(c3ccccn3)CC1)nc1ccc(Br)cc21      inactive
19  CCCC(=O)O/N=C1\c2ccccc2-c2c1c(N1CCN(c3ccccn3)CC1)nc1ccc(Br)cc21      inactive
20  CCC(=O)O/N=C1\c2ccccc2-c2c1c(N1CCN(c3ccccn3)CC1)nc1ccc(Br)cc21    3.13 µg/mL
21  CC(C)(C)OC(=O)NC(Cc1cccc(F)c1)C(=O)O/N=C1\c2ccccc2-c2c1c(N1CCN(c3ccccn3)CC1)nc1ccc(Br)cc21 (stereo not drawn)    2.98 µg/mL
22  O=C(CNC(=O)OCC1c2ccccc2-c2ccccc21)O/N=C1\c2ccccc2-c2c1c(N1CCN(c3ccccn3)CC1)nc1ccc(Br)cc21       6 µg/mL
23  CCCCCC(=O)O/N=C1\c2ccccc2-c2c1c(-n1ccnc1)nc1ccc(Br)cc21     1.5 µg/mL
24  CCCCCCCCCCCC(=O)O/N=C1\c2ccccc2-c2c1c(N1CCN(c3ccccn3)CC1)nc1ccc(Br)cc21      inactive
25  CC(C)C[C@H](NC(=O)OC(C)(C)C)C(=O)O/N=C1\c2ccccc2-c2c1c(N1CCN(c3ccccn3)CC1)nc1ccc(Br)cc21      inactive
26  CC(C)(C)OC(=O)N1CCC[C@H]1C(=O)O/N=C1\c2ccccc2-c2c1c(-n1ccnc1)nc1ccc(Br)cc21    0.39 µg/mL
27  CSCC[C@H](NC(=O)OC(C)(C)C)C(=O)O/N=C1\c2ccccc2-c2c1c(N1CCN(c3ccccn3)CC1)nc1ccc(Br)cc21      inactive
28  CCCCCCCC(=O)OC1(C)c2ccccc2-c2c1c(-n1ccnc1)nc1ccc(Br)cc21 (stereo not drawn)    3.42 µg/mL
29  CC(=O)OC1(C)c2ccccc2-c2c1c(-n1ccnc1)nc1ccc(Br)cc21 (stereo not drawn)    1.88 µg/mL
30  CCCCCCCCCC(=O)O/N=C1\c2ccccc2-c2c1c(-n1ccnc1)nc1ccc(Br)cc21       3 µg/mL
31  CCCCCC(=O)OC1(C)c2ccccc2-c2c1c(-n1ccnc1)nc1ccc(Br)cc21 (stereo not drawn)     1.6 µg/mL
32  CCCCCCC(=O)O/N=C1\c2ccccc2-c2c1c(-n1ccnc1)nc1ccc(Br)cc21    0.36 µg/mL
33  CC(C)(C)OC(=O)NC(Cc1ccccc1)C(=O)O/N=C1\c2ccccc2-c2c1c(N1CCN(c3ccccn3)CC1)nc1ccc(Br)cc21 (stereo not drawn)    3.47 µg/mL
